System: CDK7/Cyclin H/MNAT1 (Homo sapiens, UniProt P50613)
Sequence (P51946 whole entry): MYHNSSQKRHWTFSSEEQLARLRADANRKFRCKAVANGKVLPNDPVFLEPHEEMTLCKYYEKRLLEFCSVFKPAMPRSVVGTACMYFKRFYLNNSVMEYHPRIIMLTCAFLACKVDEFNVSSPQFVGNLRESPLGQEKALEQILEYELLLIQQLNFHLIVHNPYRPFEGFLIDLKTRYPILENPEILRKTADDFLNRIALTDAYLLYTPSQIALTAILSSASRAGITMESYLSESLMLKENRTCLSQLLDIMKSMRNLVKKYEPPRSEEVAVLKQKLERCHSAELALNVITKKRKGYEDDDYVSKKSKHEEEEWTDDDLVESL
Sequence (P50613 whole entry): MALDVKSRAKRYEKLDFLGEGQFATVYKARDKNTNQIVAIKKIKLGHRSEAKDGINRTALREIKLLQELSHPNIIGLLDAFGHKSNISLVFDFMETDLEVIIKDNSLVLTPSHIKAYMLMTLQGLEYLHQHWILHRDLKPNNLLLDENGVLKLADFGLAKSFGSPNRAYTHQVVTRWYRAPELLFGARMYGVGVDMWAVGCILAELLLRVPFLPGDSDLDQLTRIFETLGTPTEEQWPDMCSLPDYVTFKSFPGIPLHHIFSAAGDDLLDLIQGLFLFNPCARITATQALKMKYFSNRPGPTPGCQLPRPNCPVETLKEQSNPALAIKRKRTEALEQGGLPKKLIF
Sequence (P51948 whole entry, further chain): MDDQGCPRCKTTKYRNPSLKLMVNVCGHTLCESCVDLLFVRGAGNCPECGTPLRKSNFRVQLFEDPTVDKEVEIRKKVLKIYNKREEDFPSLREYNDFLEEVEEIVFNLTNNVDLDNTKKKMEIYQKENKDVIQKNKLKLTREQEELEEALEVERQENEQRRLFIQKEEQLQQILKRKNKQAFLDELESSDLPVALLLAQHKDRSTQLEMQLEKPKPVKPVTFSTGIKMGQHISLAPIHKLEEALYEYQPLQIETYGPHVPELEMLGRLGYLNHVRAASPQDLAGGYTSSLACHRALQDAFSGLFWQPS
Protocol details: Inhibition of CDK7/cyclin H/MAT1 (unknown origin) using HYSPTSPSYSPTSPSYSPTSPSKKKK-O substrate incubated for 120 mins measured after 40 mins incubation under dark by ADP-glo based luminescence assay
Readout type: Ki (µM)

1) CC(=O)N1CCN(c2ccc(Nc3ncc(C#N)c(-c4c(C)[nH]c5ccccc45)n3)cc2)CC1: 0.536
2) CN1CCN(c2cccc(Nc3nccc(-c4c[nH]c5ncccc45)n3)c2)CC1: 0.142

[1] CC(=O)N1CCN(c2ccc(Nc3ncc(C#N)c(-c4c[nH]c5ccccc45)n3)cc2)CC1
[2] CC(=O)N1CCN(c2ccc(Nc3ncc(C#N)c(-c4cn(C)c5ccccc45)n3)cc2)CC1
Exercise: Recorded Ki values differ for 1 and 2 ; which one is higher? Write down the label attached to your selection.
Solution: 2
